- SYSTEM: human CD33 variant Y50P (human, UniProt P20138 18-364)
- Sequence (P20138 18-364 Y50P limits assumed): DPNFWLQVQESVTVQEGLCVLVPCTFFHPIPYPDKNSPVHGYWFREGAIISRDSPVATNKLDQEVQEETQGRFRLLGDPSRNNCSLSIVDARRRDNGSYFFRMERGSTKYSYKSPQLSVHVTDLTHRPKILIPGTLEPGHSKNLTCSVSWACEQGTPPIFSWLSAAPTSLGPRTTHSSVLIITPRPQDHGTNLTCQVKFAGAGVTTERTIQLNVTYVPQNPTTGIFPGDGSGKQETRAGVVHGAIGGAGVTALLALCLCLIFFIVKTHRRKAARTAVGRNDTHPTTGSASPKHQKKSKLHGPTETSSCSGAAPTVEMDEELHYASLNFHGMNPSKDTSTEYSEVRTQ
- PROTOCOL TEXT: flow cytometry, IgG on cells expressing the mutant
MEASURED ENDPOINT: Mean % WT Binding

Sample Refmab #4 (antibody, human IgG1, V domains shown, Tested in IgG format; human IgG1 Fc silent (PG-LALA)) VH: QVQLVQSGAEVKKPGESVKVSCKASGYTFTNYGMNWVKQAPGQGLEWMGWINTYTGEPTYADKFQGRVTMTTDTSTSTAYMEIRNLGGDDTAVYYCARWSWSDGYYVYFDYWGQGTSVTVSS VL: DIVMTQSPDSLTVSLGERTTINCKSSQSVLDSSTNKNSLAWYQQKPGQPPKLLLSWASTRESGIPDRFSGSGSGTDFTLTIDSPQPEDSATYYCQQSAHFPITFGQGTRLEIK ; Mean % WT Binding observed: 85.6 % of WT

Sample Refmab #2 (antibody, human IgG1, V domains shown, Tested in IgG format; human IgG1 Fc silent (PG-LALA)) VH: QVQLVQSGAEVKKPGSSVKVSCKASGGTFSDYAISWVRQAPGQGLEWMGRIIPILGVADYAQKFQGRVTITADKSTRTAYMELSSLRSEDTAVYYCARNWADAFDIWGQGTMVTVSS VL: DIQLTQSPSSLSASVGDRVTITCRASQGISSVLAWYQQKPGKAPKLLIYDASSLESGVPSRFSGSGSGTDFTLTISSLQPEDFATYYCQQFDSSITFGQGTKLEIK ; Mean % WT Binding observed: 95.8 % of WT

Sample Refmab #1 (antibody, human IgG1, V domains shown, Tested in IgG format; human IgG1 (Absolute Antibody hP67.6, Cat. No. Ab00283-10.0); also called hP67.6) VH: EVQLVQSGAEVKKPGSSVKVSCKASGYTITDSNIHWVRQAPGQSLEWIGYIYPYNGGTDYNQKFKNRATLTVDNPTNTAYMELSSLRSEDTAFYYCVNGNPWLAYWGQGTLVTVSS VL: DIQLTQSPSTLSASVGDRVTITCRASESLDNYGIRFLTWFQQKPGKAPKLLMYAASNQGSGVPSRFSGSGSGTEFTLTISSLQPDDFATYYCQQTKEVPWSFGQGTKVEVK ; Mean % WT Binding observed: 98.1 % of WT
